# System: MS2 coat protein
# test.details: apparent KD of MS2 coat protein; designed switch direction (-1 OFF switch, 1 ON switch): 1; higher = weaker reporter binding
# settings: Eterna round: R95; input ligand: none
property.label: apparent KD of MS2 coat protein (nM)
Give the number; nM is assumed, so skip it.

Take a look at these entries with their results.
UACAAUCUAUCUGAGGAUAUCAUGAUUUAAACAUGAGGAUCACCCAUGUGCAGGAAAACUGCAUAUGAGAAGGCAGAUAGAUUGU [salish99_ss2_r3_063] (puzzle: Same State 2) = 241
AUAAGGCAAGCUUUUUUCUCGUUGUGUAAACAUGAGGAUCACCCAUGUGCCCACCCUGGAUCUUUGGAUCGCAGAAC [Mais] (puzzle: Sensor for hsa-mir-208a) = 40.8

Ask: Which value of apparent KD of MS2 coat protein has been reported for AGUCCUGCCUGAGCAGGACAAAAGCAUGUACAUGAGGAUCACCCAUGUCAUGUACAAGCUUUUUGCUCGUCUUAAUA [Mat - hsa-mir-208a - Mod of JL - D41] (puzzle: Sensor for hsa-mir-208a) in the records?
Result: 854

This collection of values is drawn from the supplement of paper PMC9170038.
